For each of the compounds below, state its Inhibition.
tested on: Mus musculus; assay: Antinociceptive activity of subcutaneously administered compound (1 mg) in phenyl-p-benzoquinone induced writhing mice; assay type: functional
Give bare numbers, in %.

Working through the 7 compounds below one at a time, give Inhibition for each.
1. CC(=O)O.CCN(CCc1ccc(Br)cc1)C(=O)CNC(=O)[C@@H](CCCN=C(N)N)NC(=O)[C@@H](N)Cc1ccc(O)cc1
2. CC(=O)O.CCN(CCc1ccc([N+](=O)[O-])o1)C(=O)CNC(=O)[C@@H](CCCN=C(N)N)NC(=O)[C@H](Cc1ccc(O)cc1)N=C(N)N
3. CC(=O)O.CCN(CCc1ccco1)C(=O)CNC(=O)[C@@H](CCCN=C(N)N)NC(=O)[C@@H](N)Cc1ccc(O)cc1
4. CC(=O)O.CCN(CCc1ccc([N+](=O)[O-])o1)C(=O)CNC(=O)[C@@H](CCCN=C(N)N)NC(=O)[C@@H](N)Cc1ccc(O)cc1
5. CC(=O)O.CCN(Cc1ccc(-c2ccccc2)cc1)C(=O)CNC(=O)[C@@H](CCCN=C(N)N)NC(=O)[C@@H](N)Cc1ccc(O)cc1
6. CC(=O)O.CCN(CCc1ccc2ccccc2c1)C(=O)CNC(=O)[C@@H](CCCN=C(N)N)NC(=O)[C@@H](N)Cc1ccc(O)cc1
7. CC(=O)O.CCN(CCc1cccs1)C(=O)CNC(=O)[C@@H](CCCN=C(N)N)NC(=O)[C@@H](N)Cc1ccc(O)cc1

result:
10
17
0
0
13
27
0

====

species on record: Mus musculus; assay: Dose ratio in the presence and absence of the peripheral opioid antagonist in N-methyl-nalorphine in AA writhing mice; format: functional
For each of the molecules below, state its Ratio.
Numbers only.

# example entries with known answers
| QUERY_SMILES | Ratio |
| --- | --- |
| CC(=O)O.CCN(C(=O)CNC(=O)[C@@H](CCCN=C(N)N)NC(=O)[C@H](Cc1ccc(O)cc1)N=C(N)N)[C@@H](Cc1ccc(F)cc1)C(N)=O | 6.5 |
| CC(=O)O.CCN(CCc1ccccc1F)C(=O)CNC(=O)[C@@H](CCCN=C(N)N)NC(=O)[C@H](Cc1ccc(O)cc1)N=C(N)N | 9.8 |
| CC(=O)O.CCN(CCc1ccc([N+](=O)[O-])cc1)C(=O)CNC(=O)[C@@H](CCSC)NC(=O)[C@@H](N)Cc1ccc(O)cc1 | 1.1 |

Please find the next molecule below.
query: Ratio for CC(=O)O.CCN(C(=O)CNC(=O)[C@@H](CCSC)NC(=O)[C@@H](N)Cc1ccc(O)cc1)[C@@H](Cc1ccc([N+](=O)[O-])cc1)C(N)=O ?
result: 0.8

====

tested on: Mus musculus; assay: Antinociceptive activity of subcutaneously administered compound in acetic acid (AA) induced writhing mice; type: functional; settings: sc
TEST_READOUT: ED50 (mg/kg)
Give bare numbers, in mg/kg.

Working through the 5 compounds below one at a time, give ED50 for each.
1. CC(=O)O.CCN(Cc1ccccc1F)C(=O)CNC(=O)[C@@H](CCCN=C(N)N)NC(=O)[C@H](Cc1ccc(O)cc1)N=C(N)N
2. CC(=O)O.CCN(C(=O)CNC(=O)[C@@H](CCCN=C(N)N)NC(=O)[C@@H](N)Cc1ccc(O)cc1)[C@@H](Cc1ccc(C(F)(F)F)cc1)C(N)=O
3. CC(=O)O.CCN(C(=O)CNC(=O)[C@@H](CCCN=C(N)N)NC(=O)[C@@H](N)Cc1ccc(O)cc1)[C@@H](Cc1ccc(F)cc1)C(N)=O
4. CC(=O)O.CCN(CCc1ccc(Cl)c(Cl)c1)C(=O)CNC(=O)[C@@H](CCCN=C(N)N)NC(=O)[C@H](Cc1ccc(O)cc1)N=C(N)N
5. CC(=O)O.CCN(CCc1ccccc1F)C(=O)CNC(=O)[C@@H](CCCN=C(N)N)NC(=O)[C@H](Cc1ccc(O)cc1)N=C(N)N

result:
0.81
0.13
0.0006
0.62
0.17

query: Test system Mus musculus; read-out ED50; what value for CC(=O)O.CCN(CCc1ccc([N+](=O)[O-])cc1)C(=O)CNC(=O)[C@@H](CCCN=C(N)N)NC(=O)[C@@H](N)Cc1ccc(O)cc1 ?
result: 3.1

====

system: Mus musculus; test: Antinociceptive activity of subcutaneously administered compound in acetic acid (AA) induced writhing mice; type: functional; conditions: sc
Please note: ED50 exactly at 0.9 mg/kg is f. Only values below 0.9 mg/kg get t.

The following molecules have reported results that may help.
| QUERY_SMILES | QUALITATIVE_LABEL |
| --- | --- |
| CC(=O)O.CN(C(=O)CNC(=O)[C@@H](CCCN=C(N)N)NC(=O)[C@@H](N)Cc1ccc(O)cc1)[C@@H](Cc1ccc([N+](=O)[O-])cc1)C(N)=O | t |
| CC(=O)O.CCN(C(=O)CNC(=O)[C@@H](CCCN=C(N)N)NC(=O)[C@@H](N)Cc1ccc(O)cc1)[C@@H](Cc1ccc(Cl)c(Cl)c1)C(N)=O | t |
| CC(=O)O.CCN(C(=O)CNC(=O)[C@@H](CCCN=C(N)N)NC(=O)[C@@H](N)Cc1ccc(O)cc1)[C@@H](Cc1cccc(F)c1)C(N)=O | t |
| CC(=O)O.CCN(C(=O)CNC(=O)[C@@H](CCCN=C(N)N)NC(=O)[C@H](Cc1ccc(O)cc1)N=C(N)N)[C@@H](Cc1ccc([N+](=O)[O-])cc1)C(N)=O | t |
| CC(=O)O.CCN(Cc1ccccc1[N+](=O)[O-])C(=O)CNC(=O)[C@@H](CCCN=C(N)N)NC(=O)[C@H](Cc1ccc(O)cc1)N=C(N)N | f |
| CC(=O)O.CCN(CCc1ccc(Br)cc1)C(=O)CNC(=O)[C@@H](CCCN=C(N)N)NC(=O)[C@H](Cc1ccc(O)cc1)N=C(N)N | t |
| CC(=O)O.CCN(CCc1ccc(C#N)cc1)C(=O)CNC(=O)[C@@H](CCCN=C(N)N)NC(=O)[C@@H](N)Cc1ccc(O)cc1 | f |
| CC(=O)O.CCN(Cc1ccccc1F)C(=O)CNC(=O)[C@@H](CCCN=C(N)N)NC(=O)[C@@H](N)Cc1ccc(O)cc1 | f |

query: Does the reported ED50 of the following molecule sit strictly below 0.9 mg/kg? CC(=O)O.CCN(CCc1ccccc1[N+](=O)[O-])C(=O)CNC(=O)[C@@H](CCCN=C(N)N)NC(=O)[C@H](Cc1ccc(O)cc1)N=C(N)N
result: t

query: Does the reported ED50 of the following molecule sit strictly below 0.9 mg/kg? CC(=O)O.CCN(C(=O)CNC(=O)[C@@H](CCCN=C(N)N)NC(=O)[C@@H](N)Cc1ccc(O)cc1)[C@@H](Cc1ccccc1F)C(N)=O
result: t

query: Does the reported ED50 of the following molecule sit strictly below 0.9 mg/kg? CC(=O)O.CCN(CCc1ccc([N+](=O)[O-])cc1)C(=O)CNC(=O)[C@@H](CCSC)NC(=O)[C@@H](N)Cc1ccc(O)cc1
result: t

query: Does the reported ED50 of the following molecule sit strictly below 0.9 mg/kg? CC(=O)O.CCN(C(=O)CNC(=O)[C@@H](CCCN=C(N)N)NC(=O)[C@@H](N)Cc1ccc(O)cc1)[C@@H](Cc1ccc([N+](=O)[O-])cc1)C(N)=O
result: t

query: Does the reported ED50 of the following molecule sit strictly below 0.9 mg/kg? CC(=O)O.CCN(Cc1ccc(F)cc1)C(=O)CNC(=O)[C@@H](CCCN=C(N)N)NC(=O)[C@@H](N)Cc1ccc(O)cc1
result: t

query: Does the reported ED50 of the following molecule sit strictly below 0.9 mg/kg? CC(=O)O.CCN(CCc1ccccc1F)C(=O)CNC(=O)[C@@H](CCCN=C(N)N)NC(=O)[C@@H](N)Cc1ccc(O)cc1
result: t

query: Does the reported ED50 of the following molecule sit strictly below 0.9 mg/kg? CC(=O)O.CCN(CCc1ccccc1[N+](=O)[O-])C(=O)CNC(=O)[C@@H](CCCN=C(N)N)NC(=O)[C@@H](N)Cc1ccc(O)cc1
result: f

query: Does the reported ED50 of the following molecule sit strictly below 0.9 mg/kg? CC(=O)O.CCN(CCc1ccc([N+](=O)[O-])cc1)C(=O)CNC(=O)[C@@H](CCCN=C(N)N)NC(=O)[C@H](Cc1ccc(O)cc1)N=C(N)N
result: t

query: Does the reported ED50 of the following molecule sit strictly below 0.9 mg/kg? CC(=O)O.CCN(CCc1ccc([N+](=O)[O-])s1)C(=O)CNC(=O)[C@@H](CCCN=C(N)N)NC(=O)[C@@H](N)Cc1ccc(O)cc1
result: f

query: Does the reported ED50 of the following molecule sit strictly below 0.9 mg/kg? CC(=O)O.CCN(CCc1ccc(F)cc1)C(=O)CNC(=O)[C@@H](CCCN=C(N)N)NC(=O)[C@@H](N)Cc1ccc(O)cc1
result: t

query: Does the reported ED50 of the following molecule sit strictly below 0.9 mg/kg? CC(=O)O.CCN(C(=O)CNC(=O)[C@@H](CCCN=C(N)N)NC(=O)[C@@H](N)Cc1ccc(O)cc1)[C@@H](Cc1ccc(Cl)cc1)C(N)=O
result: t
